Target: NPR-1 (Caenorhabditis elegans)
Assay: cAMP reporter gene assay, Gi/o (inhibition of forskolin-induced cAMP), NPR-1
Type: cell-based, C. elegans
Parameters: host or cells: HEK293
Settings: 0.1 µM peptide; inhibition of cAMP production induced by 1 µM forskolin (set to 1.00), lower = higher Gi/o activity; transiently transfected HEK293 cells; mean of at least three independent experiments
PROPERTY: cAMP, x-fold of forskolin (mean), NPR-1

Answered examples (2):
EASAFGDIIGELKGKGLGGRMRF-NH2 [FLP-27, NPY-like C. elegans FLP with C-terminal RxRF/Ya signature] : 0.91 x-fold of forskolin
ASPSFIRF-NH2 [FLP-4-2, C. elegans FMRFamide-like peptide, C-terminally amidated, synthesized by SPPS] : 0.77 x-fold of forskolin

Query: Give cAMP, x-fold of forskolin (mean), NPR-1 (NPR-1 (Caenorhabditis elegans)) of the following substance: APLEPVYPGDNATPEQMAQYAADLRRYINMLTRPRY-NH2 [PP, human pancreatic polypeptide, reference compound]
Reply: 1.21 x-fold of forskolin

* * *

Biological target: NPR-1 (Caenorhabditis elegans, UniProt Q18534)
Sequence (Q18534 1-457): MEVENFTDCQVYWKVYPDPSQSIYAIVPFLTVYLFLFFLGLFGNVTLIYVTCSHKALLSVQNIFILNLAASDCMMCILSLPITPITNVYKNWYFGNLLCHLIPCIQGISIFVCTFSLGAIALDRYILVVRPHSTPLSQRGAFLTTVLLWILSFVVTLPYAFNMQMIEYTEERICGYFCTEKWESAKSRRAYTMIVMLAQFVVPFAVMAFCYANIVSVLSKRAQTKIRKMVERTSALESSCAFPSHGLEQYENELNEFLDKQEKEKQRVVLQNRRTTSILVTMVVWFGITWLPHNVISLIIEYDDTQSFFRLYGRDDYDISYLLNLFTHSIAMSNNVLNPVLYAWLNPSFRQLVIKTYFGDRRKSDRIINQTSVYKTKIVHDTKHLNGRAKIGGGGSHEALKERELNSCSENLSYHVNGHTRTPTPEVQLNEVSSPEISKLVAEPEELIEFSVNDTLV
Assay: cAMP reporter gene assay, Gi/o (inhibition of forskolin-induced cAMP), NPR-1
Assay type: cell-based, C. elegans
Design: host or cells: HEK293
Settings: HEK293, read-out: Emax ± SEM [%]; SEM
Ends that are not written are not given here.
Entries and their Emax values follow.
State the answer as a number, implicitly in %.

Examples with their reported Emax follow.
ADISTFASAINNAGRLRY-NH2 [FLP-34-1] : -0.65
KHEYLRF-NH2 [FLP-14] : -0.51

Query: So what's the measured Emax for this one? SEVPGVLRF-NH2 [FLP-18-5]
Reply: -0.53

Query: One more substance: GLGPRPLRF-NH2 [FLP-21]
Reply: -0.97

Query: RGPSGPLRF-NH2 [FLP-15-2] , same question.
Reply: -0.92

* * *

Recorded IP accumulation, x-fold of basal (mean), QRFPR# for the following substances
Target: QRFPR (Homo sapiens)
Construct: expressed in transfected cells; host or cells: HEK293, transient
Sequence (Q96P65 whole entry): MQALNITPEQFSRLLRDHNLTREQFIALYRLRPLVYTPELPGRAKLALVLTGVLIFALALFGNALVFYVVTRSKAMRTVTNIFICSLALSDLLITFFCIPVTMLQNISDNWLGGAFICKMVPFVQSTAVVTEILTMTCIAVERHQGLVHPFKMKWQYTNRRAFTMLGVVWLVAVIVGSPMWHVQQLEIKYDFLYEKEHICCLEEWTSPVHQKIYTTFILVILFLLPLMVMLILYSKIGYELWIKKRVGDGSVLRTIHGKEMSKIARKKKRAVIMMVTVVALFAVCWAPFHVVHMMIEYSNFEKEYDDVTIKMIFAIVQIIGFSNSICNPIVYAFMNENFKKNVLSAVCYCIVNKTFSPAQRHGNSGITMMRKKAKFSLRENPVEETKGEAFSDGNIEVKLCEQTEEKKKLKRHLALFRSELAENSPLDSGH
Test: IP accumulation assay, endogenous Gαq coupling, QRFPR
Format: cell-based
Conditions: 10 µM peptide, transiently transfected HEK293 cells, mean of at least three independent experiments
Protocol: For measuring IP accumulation, HEK293 cells grown to 70–80% confluency in 6-well plates were transiently co-transfected using Metafectene Pro (2.5 μl/μg DNA; Biontex) with plasmids containing receptor and/or mock (empty pcDNA3.1) (for endogenous Gq-coupling) using 4 μg total DNA in a ratio of 3:1 following the manufacturer’s instructions. […] IP accumulation was measured with the HTRF-based IP-One Gq kit (Cisbio) on a microplate reader (Tecan Spark). […]

Query: Param item = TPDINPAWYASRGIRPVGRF-NH2 [PrRP20, human prolactin-releasing peptide, 20 residues, reference compound] ; retrieve measured IP accumulation, x-fold of basal (mean), QRFPR#.
Reply: 0.63 x-fold of basal

Query: // query: ASPSFIRF-NH2 [FLP-4-2, C. elegans FMRFamide-like peptide, C-terminally amidated, synthesized by SPPS]
Reply: 0.98 x-fold of basal

Query: What do you get for AGSDPNFLRF-NH2 [FLP-1-2, C. elegans FMRFamide-like peptide, C-terminally amidated, synthesized by SPPS] ?
Reply: 0.92 x-fold of basal

Query: Same for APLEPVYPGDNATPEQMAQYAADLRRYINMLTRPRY-NH2 [PP, human pancreatic polypeptide, reference compound]
Reply: 0.75 x-fold of basal

Query: Would you mind doing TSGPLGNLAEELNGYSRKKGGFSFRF-NH2 [QRFP26, human pyroglutamylated RFamide peptide, 26 residues, reference compound] as well?
Reply: 24.26 x-fold of basal

Query: Lookup APLEGFEDMSGFLRTIDGIQKPRF-NH2 [FLP-33, NPY-like C. elegans FLP with C-terminal RxRF/Ya signature]
Reply: 0.80 x-fold of basal

Query: One more substance: APKPKFIRF-NH2 [FLP-5-1, C. elegans FMRFamide-like peptide, C-terminally amidated, synthesized by SPPS]
Reply: 1.21 x-fold of basal

Query: Moving on to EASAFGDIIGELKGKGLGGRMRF-NH2 [FLP-27, NPY-like C. elegans FLP with C-terminal RxRF/Ya signature]
Reply: 0.95 x-fold of basal

Query: Same thing, different substance: NPENDTPFGTMRF-NH2 [FLP-3-4, C. elegans FMRFamide-like peptide, C-terminally amidated, synthesized by SPPS]
Reply: 1.52 x-fold of basal

Reference source: paper PMC6751662
